System: Akkermansia muciniphila
ASSAY_EXPLANATION: growth AUC relative to DMSO control (median of replicates) (fraction); higher = more growth (less inhibition), active = hit call of the paper
EXPERIMENTAL_PARAMETERS: 20 µM; 24 h
growth AUC listing for selected compounds.
Please give the numeric answer without any surrounding text.

These recorded examples may help you get a feel for the data.
Name the recorded growth AUC for `O=C(O)c1ccc(=O)[nH]c1` .
1.06

Record request: growth AUC value, item `CCNc1nc(Cl)nc(NC(C)(C)C#N)n1`
0.889

Next, consider the following compound.
Can you share its growth AUC? I mean this compound: `COP(=S)(OC)Oc1cc(Cl)c(Br)cc1Cl`
0.9
